test system: 616215-338-R-J1-PDC complex spheroid viability; assay: Anticancer human tumor 616215-338-R-J1-PDC patient-derived colon adenocarcinoma cell line growth inhibition [RAS]; conditions: second compound 0.0316 µM; first compound 0.316 µM; stronger effect = lower value;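 further: spheroids exposed to agents for seven days before viability readout; 100% = DMSO vehicle control viability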
Recorded viability, T/C for the following compounds
Record the value in %, omitting the unit from your answer.

Please review the entries below; each comes with its answer.
compound="NC1c2ccccc2OC12CCN(c1cnc3c(N4CCCc5ncccc54)n[nH]c3n1)CC2 (centres undefined) + C=CC(=O)N1CCN(c2nc(OCC3CCCN3C)nc3c(F)c(-c4nc(N)cc(C)c4C(F)(F)F)c(Cl)cc23)C(C)C1" measured_metric="viability, T/C" unit_of_measurement=% endpoint_value=95.7
compound="CC(Nc1ccc2c(c1)OCCn1cc(N3C(=O)OCC3C(F)F)nc1-2)C(N)=O (centres undefined) + C#Cc1c(F)ccc2cc(O)cc(-c3ncc4c(N5CC6CCC(C5)N6)nc(OCC56CCCN5CC(F)C6)nc4c3F)c12" measured_metric="viability, T/C" unit_of_measurement=% endpoint_value=104
compound="CC1(O)CCCC1n1c(=O)c(C(F)F)cc2cnc(NC3CCN(S(C)(=O)=O)CC3)nc21 (centres undefined) + C#Cc1c(F)ccc2cc(O)cc(-c3ncc4c(N5CC6CCC(C5)N6)nc(OCC56CCCN5CC(F)C6)nc4c3F)c12" measured_metric="viability, T/C" unit_of_measurement=% endpoint_value=53.5

Alright, here's another compound for you.
input: viability, T/C lookup needed for C[C@@H](NC(=O)c1ncnc(N)c1Cl)c1ncc(C(=O)Nc2cc(C(F)(F)F)c(Cl)cn2)s1 + C#Cc1c(F)ccc2cc(O)cc(-c3ncc4c(N5CC6CCC(C5)N6)nc(OCC56CCCN5CC(F)C6)nc4c3F)c12 , thanks.
output: 109
